Target: T1, COX14 peptide complexed with HLA-A*02:01 on T2 cells (human)
T1 construct: whole, on cells
Test: flow cytometry, peptide-loaded T2 cells;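 note: binding of single-chain Fv antibody constructs, raised in XenoMouse, to peptide-pulsed T2 cells measured by flow cytometry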
Hi there, I'd appreciate the recorded Signal/background for every entry that follows.
Reply: number alone, nothing else.

What does the record list as Signal/background for 18179-C1 (scFv, scFv in bacterial lysate, detected with anti-Flag M2) scFv: EVQLLESGAEVKKPGASVKVSCKASGYTFTRNGLSWVRQAPGQGLEWMGWISGYNGDTNYAQKLQGRGTMTTDTSTSTAYMELRSLRSDDTAVYYCARGRATFDYWGQGTLVTVSSGGGGSGGGGSGGGGSELVMTQSPSSLSASVGDRVTITCRASQGISNYLAWYQQKPGKVPKLLISAASTLQSGVPSRFSGSGSGTDFTLTISSLQPEDVATYYCQKYNSAPFTFGPGTKVDIK ?
1

What does the record list as Signal/background for 18182-H9 (scFv, scFv in bacterial lysate, detected with anti-Flag M2) scFv: EVQLLESGGGLVQPGGSLRLSCAASGFTFSSHAMSWVRQAPGKGLEWVSAISGSGGGTYYADSVKARFTISRDNSKNTLYLQMNSLRAEDTAVYYCATGKGVHLGFDYWGQGTLVTVSSGGGGSGGGGSGGGGSELVLTQPPSVSVAPGQTARITCGGNNIGSKSVHWHQQKPGQAPVLVVYDDNDRPSGIPERFSGSNSGNTATLTISRVEAGDEADFYCQVWDSSSDHVVFGGGTKLTVL ?
0.9
